FYI, the data here is from ChEMBL document CHEMBL1201862.

Form field: GI50 (one value per entry).
# Tested on: HT-29
# protocol: NCI tumour cell line growth inhibition, 48 h
Active and inactive are the calls of the source. Cut-off read from the data, not from the text of the source: active = GI50 up to about 1.1 µM and inactive = higher.
assay metric: GI50

1) Cc1cc(=O)oc2cc(SC(=O)N(C)C)ccc12 = > 100 µM (inactive)
2) CC(C)(C)OC(=O)C1C(=O)NC(=O)CC1C(OCc1ccccc1)C(OCc1ccccc1)C(COCc1ccccc1)OCc1ccccc1 (configuration not stated) = 16.6 µM (inactive)
3) CN(C(=O)Cc1ccc(Cl)c(Cl)c1)[C@H]1CCCC[C@@H]1[N+]1(C)CCCC1 = > 100 µM (inactive)
4) CC[C@@]1(O)C(=O)OCc2c1cc1n(c2=O)Cc2c-1nc1ccccc1c2/C=N/NC(=O)c1ccc(N)cc1 = 4.68 µM (inactive)
5) COc1cc2ccnc(C#N)c2cc1OCc1ccccc1 = > 100 µM (inactive)
6) CC(C)C(/N=C/c1ccccc1O)C(=O)O (configuration not stated) = > 100 µM (inactive)
7) COc1cc2c(cc1OC)CN1CCCc3cc(OC)c(OC)cc3C1C2 (configuration not stated) = 19.6 µM (inactive)
8) Cc1ccc(NC2=CC(=O)C(NO)c3ccccc32)cc1 (configuration not stated) = 4.35 µM (inactive)
9) O=P(c1ccccc1)(c1ccccc1)N1O[C@@H](c2ccccc2)C=C[C@H]1c1ccccc1 = 9.75 µM (inactive)
10) O=C(C(=O)c1cc(-c2ccccc2)nc2ccc3ccccc3c12)c1ccccc1 = > 100 µM (inactive)
11) Cc1ncc(-c2nnnn2-c2ccccc2)c(C(=O)O)n1 = > 100 µM (inactive)
12) O=C(O)CN1CCN(CC(=O)O)CCN(CC(=O)O)CC1 = 3.55 µM (inactive)
13) C=C1C(=O)OC2/C=C(CO)/C=C\C3OC3(C)CC(OC(=O)/C(C)=C/COC(C)=O)C12 (configuration not stated) = 2.52 µM (inactive)
14) CCCCCc1c(Cl)nc(Cl)nc1Cl = 3.59 µM (inactive)
15) C[N+](C)=c1nc(N2CCOCC2)ss1 = 22.8 µM (inactive)
16) CCC1(c2ccc(N3C(=O)c4cc(OC)c(OC)cc4C3=O)cc2)CCC(=O)NC1=O (configuration not stated) = > 10 µM (inactive)
17) O=C1Nc2ccc(Br)cc2/C1=N/N1C(=O)C(=O)N(C2CCCCC2)C1=S = 2.75 µM (inactive)
18) CC1(C)CC(=O)C2=C(C1)NC1=C(C2)C(=O)CC(C)(C)C1 = > 100 µM (inactive)
19) CC(C)CCc1n[nH]c(=O)n1/N=C\c1ccccc1 = > 100 µM (inactive)
20) CCOC(=O)C1=C(O)C(=O)c2ccoc2C1=O = > 100 µM (inactive)
21) CCOc1cc(C(c2c(O)c3ccccc3oc2=O)c2c(O)c3ccccc3oc2=O)ccc1OC = 24.2 µM (inactive)
22) Cc1ccc(NC(=O)C(=O)C(C(=O)c2ccc3ccccc3c2)C2OC(=O)c3ccccc32)c(C)c1 (configuration not stated) = 25.7 µM (inactive)

* * *

# System: IGROV-1
# protocol: NCI tumour cell line growth inhibition, 48 h
Calls of active or inactive are those of the source. No stated cut-off is given here; in the data, active = GI50 up to about 1.1 µM and inactive = higher.
Form field: GI50 (one value per entry).
assay metric: GI50

1. N=C(N)SCc1cccc(-c2nc3ccccc3c(=O)o2)c1 = > 100 µM (inactive)
2. CNC(=O)OCc1cc2ccncc2c2c1[nH]c1ccccc12 = > 26.9 µM (inactive)
3. CC(C)(C)OC(=O)NC1CCC(C(C)(C)C)CC1 (stereo unspecified) = > 100 µM (inactive)
4. O=S1OC[C@H](CCCl)O1 (stereo partly specified) = > 100 µM (inactive)
5. N#Cc1c(-c2ccccc2)c(/C=N/c2cccc(C(F)(F)F)c2)c(=O)n2c1[nH]c1ccccc12 = 29.2 µM (inactive)
6. CC(C)(C)OC(=O)NC(Cc1c[nH]cn1)C(=O)N1CCCC1C(N)=O (stereo unspecified) = > 100 µM (inactive)
7. CCN(CC)CCCn1c(=O)c2cccnc2n2c3c(=O)n(C)c(=O)n(C)c3nc12 = > 100 µM (inactive)
8. N#Cc1ccc(N2CCOCC2)cc1 = > 100 µM (inactive)
9. C=C(/C=C/C=C(\C)CCC=C(C)C)[C@@H]1CC[C@]2([C@H](CCCO)/C(=C(/C)C=O)CC[C@]2(C)O)[C@@H]1O = 32.2 µM (inactive)
10. C/C(=N\NC(=S)NCCCNC(=S)N/N=C(\C)c1ccccn1)c1ccccn1 = 3.9 µM (inactive)
11. O=C1COc2cc(NC(=S)Nc3ccccc3)ccc2N1 = > 100 µM (inactive)
